The values you see were collected from PubChem BioAssay (NCATS).

Tested on: HeLa
ASSAY: Primary qHTS to identify gynecologic anti-cancer compounds using libraries of approved drugs and bioactive compounds (AID 1345084); further: nearly all actives have a fitted effect of over 55% in size
TEST_CONDITIONS: Gynecologic cancer cell panel viability, ATPlite luminescence, 48 h; series mostly up to 57.5 µM
Description: National Center for Advancing Translational Sciences [NCATS] Assay Overview: Chemotherapeutic drug responses vary from cancer to cancer and from patient to patient. […] ATPlite is a luminescence based assay reliant on the conversion of a luciferase substrate to light in the presence of ATP. As a cytotoxic compound will suppress growth and decrease the number of cells, the concentration of ATP will decrease, and less light signal will be detected in the well. […]
Results filed as inconclusive are left out. Active and inactive are the calls of the source. The call rests on the fitted dose curve; in most records, active means well fitted cell-killing curve with a large enough effect; inconclusive means small, poorly fitted or top-dose-only effect, or effect the other way; inactive means flat fitted curve, though single readings scatter.

ENTRY_SMILES | TARGET_ENTITY | outcome
CCN(CC)CCNC(=O)c1ccc2nc(-c3ccccc3)c(-c3ccc(CN4CCC(n5c(=O)[nH]c6ccccc65)CC4)cc3)nc2c1 | HeLa | inactive
Cc1cn2cc(C(=O)N(C)CCO)cc(N[C@@H]3CCOc4cccc(C)c43)c2n1 | HeLa | inactive
O=c1c2ccccc2nc2n1CCc1c-2[nH]c2ccccc12 | HeLa | inactive

---

ASSAY: qHTS of pediatric cancer cell lines to identify multiple opportunities for drug repurposing: Confirmatory screen for U-2 OS cells (AID 1347122); further: nearly all actives have a fitted effect of over 65% in size
TEST_CONDITIONS: U-2 OS osteosarcoma cell viability; series mostly up to 45.9 µM
Inconclusive results are not listed. The source made the active and inactive calls. The call rests on the fitted dose curve; in most records, active means well fitted cell-killing curve with a large enough effect; inconclusive means small, poorly fitted or top-dose-only effect; inactive means no such curve, though single readings can be large or run the other way.
Possible outcomes: True (active), False (inactive)

ENTRY_SMILES | GROUP
Cc1cc(N2CCOCC2)cc2[nH]c(-c3c(NC[C@@H](O)c4cccc(Cl)c4)cc[nH]c3=O)nc12 | True
O=C(NC1CCNCC1)c1[nH]ncc1NC(=O)c1c(Cl)cccc1Cl | True
COc1ccc(F)c(F)c1C(=O)c1cnc(NC2CCN(S(C)(=O)=O)CC2)nc1N | True
CC=CC1=C(C(=O)O)N2C(=O)[C@H](NC(=O)[C@H](N)c3ccc(O)cc3)[C@@H]2SC1 | False
C=CC(=O)Nc1cccc(Oc2nc(Nc3ccc(N4CCN(C)CC4)cc3)ncc2Cl)c1 | True
CN[C@H]1CCc2cc(OC)c(OC)c(OC)c2-c2ccc(OC)c(=O)cc21 | True
Cc1cnc(-c2cnc(NCCNc3ccc(C#N)cn3)nc2-c2ccc(Cl)cc2Cl)[nH]1 | False
Cn1c(=O)n(-c2ccc(C(C)(C)C#N)cc2)c2c3cc(-c4cnc5ccccc5c4)ccc3ncc21 | True
NCC(=O)Nc1ccc(-n2nc(C(F)(F)F)cc2-c2ccc3c(ccc4ccccc43)c2)cc1 | True
Cc1c(Cn2c(C)nc3c(C(=O)O)cc(N4CCOCC4)cc32)cccc1C(F)(F)F | True
CC(C)c1cc(C(=O)N2Cc3ccc(CN4CCN(C)CC4)cc3C2)c(O)cc1O | True
CC1(C)CCC(c2ccc(Cl)cc2)=C(CN2CCN(c3ccc(C(=O)NS(=O)(=O)c4ccc(N[C@H](CCN5CCOCC5)CSc5ccccc5)c(S(=O)(=O)C(F)(F)F)c4)cc3)CC2)C1 | False
COCCn1c2c([n+](Cc3cnccn3)c1C)C(=O)c1ccccc1C2=O | True
C[C@@]12O[C@@H](C[C@]1(O)CO)n1c3ccccc3c3c4c(c5c6ccccc6n2c5c31)CNC4=O | True
Cc1ccc(NC(=O)C2(c3ccc4c(c3)OC(F)(F)O4)CC2)nc1-c1cccc(C(=O)O)c1 | True
CC(C)c1nn(-c2c(Cl)cccc2Cl)c2nc(Cc3ccc(OCCO)cc3)[nH]c(=O)c12 | True
CCS(=O)(=O)c1cccc(-c2cc(C(=O)NC3CCN(C)CC3)c(C)c3[nH]c4ncc(C)cc4c23)c1 | True
CC1=C(CO)C(=O)O[C@@H]([C@@H](C)[C@H]2CC[C@H]3[C@@H]4C[C@H]5O[C@]56[C@@H](O)C=CC(=O)[C@]6(C)[C@@H]4CC[C@]23C)C1 | False
NC(=O)Nc1cc(-c2cccc(F)c2)sc1C(=O)N[C@H]1CCCNC1 | True
Cc1c(C)n(Cc2ccc(-c3ccccc3C(=O)O)cc2)c2ccc(C(=O)N[C@@H](C)c3ccc([N+](=O)[O-])cc3)cc12 | False
Cn1c2ccccc2c2c3c(c4c5ccccc5n(CCC#N)c4c21)CNC3=O | True
C=CC(=O)Nc1cc2c(Nc3ccc(F)c(Cl)c3)ncnc2cc1C#CC(C)(C)N1CCN(C)CC1 | True
Cc1nc(Nc2n[nH]c3c2CN(C(=O)N[C@H](CN(C)C)c2ccccc2)C3(C)C)c2sccc2n1 | False
COc1ccc(C=Cc2cc(OC)c(OC)c(OC)c2)cc1O | True
O=C(C=Cc1cccc(S(=O)(=O)Nc2ccccc2)c1)NO | True
Cc1ccc(-c2ncn(-c3ccc(Nc4nccc(-c5cccc(N6CCOCC6)c5)n4)cc3)n2)cn1 | True
Cc1cn2c(-c3cn[nH]c3)cnc2c(Nc2ccc(C(=O)N3CCNCC3)cc2F)n1 | False
Nc1cc(C(F)(F)F)c(-c2cc(N3CCOCC3)nc(N3CCOCC3)n2)cn1 | True
O=C(Nc1ncc(-c2cc(C(F)F)nn2-c2c(Cl)cccc2Cl)s1)C1CC1 | True

---

ASSAY: Quantitative High-Throughput drug screen in 47 multiple myeloma cell lines against the NCATS MIPE library collection: KMS12PE_JCRB cell viability assay (AID 1918972); further: nearly all actives have a fitted effect of over 30% in size
TEST_CONDITIONS: KMS12PE myeloma viability, CellTiter-Glo ATP, 48 h; series mostly up to 45.8 µM
Description: PI: Beverly A. Mock Ph.D. Laboratory of Cancer Biology and Genetics, Center for Cancer Research, National Cancer Institute, National Institute of Health, Bethesda, Maryland […] 5; Detector; 425V; Luminescence; Viewlux PerkinElmer. […] 1. […] Briefly, the corresponding myeloma cell lines were screened in 1,536-well plates with 500 cells, 5-uL per well for inhibition of cell viability (assessed by measuring ATP levels with CellTiterGlo). […]
Records with an inconclusive call do not appear. Calls of active or inactive are those of the source. Calls come from the whole dose curve; as a rule, active = well fitted cell-killing curve with a large enough effect; inconclusive = small, poorly fitted or top-dose-only effect, or effect the other way; inactive = no such curve, though single readings can be large or run the other way.
Classes used: active, inactive

ENTRY_SMILES | GROUP
CCN1CCN(Cc2ccc(-c3cc4c(N[C@H](C)c5ccccc5)ncnc4[nH]3)cc2)CC1 | active
COC(=O)Nc1ccc(-c2nc(N3CCOCC3)c3cnn(C4CCN(Cc5cccnc5)CC4)c3n2)cc1 | inactive
COc1c(OCCCN2CCOCC2)ccc2c3n(c(=NC(=O)c4cnc(N)nc4)nc12)CCN3 | active
COc1cccc(Nc2c(C(N)=O)cnc3c(C)cc(S(=O)(=O)c4cccc(C(=O)N(C)C)c4)cc23)c1 | active
CNC(=O)c1nn(C)c2c1C(C)(C)Cc1cnc(Nc3ccc(N4CCN(C)CC4)cc3)nc1-2 | active

---

ASSAY: qHTS Screen of the MIPE 4.0 Collection Against Ewings Sarcoma (TC32) (AID 1259256); further: nearly all actives have a fitted effect of over 45% in size; further: potency means the concentration at half of the fitted maximal effect
TEST_CONDITIONS: TC32 Ewing sarcoma viability, CellTiter-Glo, 48 h; series mostly up to 45.8 µM
Records with an inconclusive call do not appear. Active and inactive are the calls of the source. Calls follow the shape of the dose curve; as a rule, active = well fitted inhibition curve with a large enough effect; inconclusive = small, poorly fitted or top-dose-only effect; inactive = no such curve, though single readings can be large or run the other way.
EXPERIMENTAL_READOUT: Potency

COMPOUND | MEASURED_VALUE
CC(C)(O)c1cc2nc(-c3cnc(N)nc3)nc(N3CCOCC3)c2s1 | 0.0662 µM (active)
CN(C1CCc2c(c3ccccc3n2CC(=O)O)C1)S(=O)(=O)c1ccc(F)cc1 (stereo unspecified) | inactive
O=C(c1cncc(Br)c1)N1CCC(N2CCCC2)CC1 | inactive
Clc1ccc2ncc(-c3cccc(NC4CNC4)n3)n2c1 | 18.7 µM (active)
Cc1ccc2nc(NC(=O)CSc3nc4c(c(=O)n3-c3ccccc3)SCC4)sc2c1 | 16.6 µM (active)
Nc1ccn([C@@H]2CS[C@H](CO)O2)c(=O)n1 | inactive
CNC(=O)c1nn(C)c2c1C(C)(C)Cc1cnc(Nc3ccc(N4CCN(C)CC4)cc3)nc1-2 | 2.35 µM (active)
C1=CCOCc2cc(ccc2OCCN2CCCC2)Nc2nccc(n2)-c2cccc(c2)OCC1 | 7.43 µM (active)
Nc1nc(Nc2ccc(S(N)(=O)=O)cc2)nn1C(=O)c1c(F)cccc1F | 7.43 µM (active)
O=c1[nH]nc(Sc2ncc([N+](=O)[O-])s2)n1-c1ccc2c(c1)OCCO2 | 2.96 µM (active)
Cc1cc(Nc2nc(N[C@@H](C)c3ccc(F)cc3)c(C#N)cc2F)n[nH]1 | 1.32 µM (active)
CN1CCN(Cc2ccc(NC(=O)Nc3ccc(Oc4cc(NC(=O)C5CC5)ncn4)cc3)cc2C(F)(F)F)CC1 | 0.296 µM (active)
Nc1nccc(Oc2ccc(NC(=O)c3c[nH]cc(-c4ccc(F)cc4)c3=O)cc2F)c1Cl | 2.64 µM (active)
CN1CCN(c2cc(C(=O)Nc3ccc4c(c3)-c3c(c(C(N)=O)nn3-c3ccc(F)cc3)CC4)c(Cl)cn2)CC1 | 13.2 µM (active)
OCc1ccc(-c2ccc(-c3ccc(CO)s3)o2)s1 | 18.7 µM (active)
CC(C)(C)c1cc(NC(=O)Nc2ccc(-c3cn4c(n3)sc3cc(OCCN5CCOCC5)ccc34)cc2)no1 | inactive
CNC(=O)c1ccc(-c2cnc3ncc(Cc4ccc5ncccc5c4)n3n2)cc1F | inactive
C[C@@H](Oc1cc(-c2cnn(C3CCNCC3)c2)cnc1N)c1c(Cl)ccc(F)c1Cl | 4.18 µM (active)
COc1c(N2C[C@@H]3CCCN[C@H]3C2)c(F)cc2c(=O)c(C(=O)O)cn(C3CC3)c12 | inactive
Nc1ncnc2c1c(-c1cnc3[nH]ccc3c1)nn2C1CCCC1 | 1.05 µM (active)
COc1cccc2nc(-c3cccs3)nc(NN3C(=O)C=C(C)C3=O)c12 | 1.87 µM (active)
CC(C)(C)NC(=O)[C@H]1CN(Cc2cccnc2)CCN1C[C@@H](O)C[C@@H](Cc1ccccc1)C(=O)N[C@H]1c2ccccc2C[C@H]1O | 1.32 µM (active)
CC(C)c1ccccc1Cc1cc(C(=O)Nc2ccc(S(=O)(=O)c3ccccc3C(C)(C)C)cc2)c(O)c(O)c1O | 8.33 µM (active)
Cc1ccc(C(=O)Nc2cccc(C(F)(F)F)c2)cc1-c1ccc2nc(NCCN3CCOCC3)ncc2c1 | 11.8 µM (active)
Clc1cccc(-c2nnnn2Cc2cccnc2)c1Cl | inactive
CCC1=C[C@@H]2CN(C1)Cc1c([nH]c3ccccc13)[C@@](C(=O)OC)(c1cc3c(cc1OC)N(C)[C@@H]1[C@@](O)(C(=O)OC)[C@H](OC(C)=O)[C@]4(CC)C=CCN5CC[C@]31[C@@H]54)C2 | inactive
